# credit: paper doi:10.1101/2024.02.24.581848

Target: HigC SecB^TA chaperone of the E. coli NT1F31 HigBAC system (E. coli NT1F31)
Assay: ITC
readout_type: Kd

                                     binder    value
0  GELTAESYDDSYLDDEDADWTATGQGQKSAG [gpV^48-78 peptide]  0.25 µM
1  GELTAESYDDSYLAAAAADWTATGQGQKSAG [gpV^48-78 peptide, poly-alanine substitution of the D61DED64 element]     7 µM
